- test system: human RXFP1 (Homo sapiens)
- Sequence (Q9HBX9 whole entry): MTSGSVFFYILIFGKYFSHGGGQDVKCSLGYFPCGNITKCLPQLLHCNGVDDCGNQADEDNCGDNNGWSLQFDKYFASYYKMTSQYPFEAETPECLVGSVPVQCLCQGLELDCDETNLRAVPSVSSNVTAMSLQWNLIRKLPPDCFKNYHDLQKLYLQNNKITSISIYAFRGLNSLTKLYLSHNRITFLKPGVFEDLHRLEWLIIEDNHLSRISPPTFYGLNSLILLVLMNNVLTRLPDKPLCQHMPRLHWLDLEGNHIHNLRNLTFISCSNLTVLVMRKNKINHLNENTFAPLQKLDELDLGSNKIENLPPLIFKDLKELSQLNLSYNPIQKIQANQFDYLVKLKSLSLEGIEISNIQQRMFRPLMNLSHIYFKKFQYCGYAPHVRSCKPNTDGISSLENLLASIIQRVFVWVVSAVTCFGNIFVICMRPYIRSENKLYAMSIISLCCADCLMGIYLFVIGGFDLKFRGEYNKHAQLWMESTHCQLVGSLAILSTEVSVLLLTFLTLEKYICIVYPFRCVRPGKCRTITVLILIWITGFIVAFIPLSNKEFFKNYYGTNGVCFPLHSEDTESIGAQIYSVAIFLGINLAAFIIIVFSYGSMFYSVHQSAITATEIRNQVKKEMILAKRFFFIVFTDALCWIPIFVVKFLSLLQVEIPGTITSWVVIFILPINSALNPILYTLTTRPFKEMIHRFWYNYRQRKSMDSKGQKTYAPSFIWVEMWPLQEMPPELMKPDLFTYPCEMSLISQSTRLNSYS
- test summary: hRXFP1 HEK293 cAMP assay (HTRF)
- experimental conditions: HEK293 cells stably expressing human RXFP1; 30 min at rt; intracellular cAMP by HTRF
pEC50: −log10 of the molar value.
Rule: pEC50 under 6 gives 0, otherwise 1.

{"molecule": "COc1ccc(C2CCN(C(=O)CCO)C2)cc1C(=O)Nc1c(C(=O)Nc2ccc(F)c(C(F)(F)F)c2)sc2cc(C(F)(F)F)ccc12 (stereo not drawn)", "class assignment": 1}
{"molecule": "COc1ccc(C2CC3(C2)CN(C(=O)CN(C)C)C3)cc1C(=O)Nc1c(C(=O)Nc2ccc(F)c(C(F)(F)F)c2)sc2cc(C(F)(F)F)ccc12", "class assignment": 0}
{"molecule": "COc1ccc(C(=O)N2CC(C)(O)C2)cc1C(=O)Nc1c(C(=O)Nc2ccc(F)c(C(F)(F)F)c2)sc2cc(C(F)(F)F)ccc12", "class assignment": 1}
